# Tgt: Broad substrate specificity ATP-binding cassette transporter ABCG2 (Homo sapiens, UniProt Q9UNQ0)
# Sequence (Q9UNQ0 whole entry): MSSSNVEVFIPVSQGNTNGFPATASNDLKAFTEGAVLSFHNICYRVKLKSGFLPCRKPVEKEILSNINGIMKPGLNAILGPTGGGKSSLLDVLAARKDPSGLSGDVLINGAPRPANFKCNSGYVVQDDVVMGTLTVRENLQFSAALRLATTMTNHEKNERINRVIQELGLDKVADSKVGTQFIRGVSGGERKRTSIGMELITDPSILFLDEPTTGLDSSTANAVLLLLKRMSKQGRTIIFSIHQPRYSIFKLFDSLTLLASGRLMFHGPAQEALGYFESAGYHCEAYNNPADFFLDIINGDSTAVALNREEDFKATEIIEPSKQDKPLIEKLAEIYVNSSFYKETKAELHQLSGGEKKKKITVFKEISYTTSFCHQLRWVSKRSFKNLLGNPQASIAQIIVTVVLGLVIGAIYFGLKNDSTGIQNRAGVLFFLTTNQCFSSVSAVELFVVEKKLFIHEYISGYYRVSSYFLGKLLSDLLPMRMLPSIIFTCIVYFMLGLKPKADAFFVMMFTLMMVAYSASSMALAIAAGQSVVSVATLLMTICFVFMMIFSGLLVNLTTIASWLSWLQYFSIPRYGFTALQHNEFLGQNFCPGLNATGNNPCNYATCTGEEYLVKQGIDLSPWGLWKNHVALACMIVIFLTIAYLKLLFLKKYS
# Experimental protocol: Inhibition of ABCG2 in human MCF7/Topo cells after 2 hrs by Hoechst 33342 microplate assay

Structure notation: COCCOCCOCCOc1cc2c(cc1OCCOCCOCCOC)CN(Cc1ccc(-c3ccc(C(=O)OC)c(NC(=O)c4ccc5ccccc5n4)c3)cc1)CC2
IC50 (nM): 839
--
Structure notation: COC(=O)c1ccc(-c2ccc(CN3CCc4ccccc4C3)cc2)cc1NC(=O)c1ccc2ncccc2c1
IC50 (nM): 641
--
Structure notation: COCCOCCOCCOc1cc2c(cc1OC)CCN(Cc1ccc(-c3ccc(C(=O)OC)c(NC(=O)c4ccc5ccccc5n4)c3)cc1)C2
IC50 (nM): 591
--
Structure notation: COC(=O)c1ccc(-c2ccc(CCN3CCc4ccccc4C3)cc2)cc1NC(=O)c1ccc2ccccc2n1
IC50 (nM): 1100
--
Structure notation: COc1ccc2c3c([nH]c2c1)[C@H](C=C(C)C)N1C(=O)[C@@H]2CCCN2C(=O)[C@@H]1C3
IC50 (nM): 731
--
Structure notation: COC(=O)c1ccc(-c2ccc(CN3CCc4cc(OC)c(OC)cc4C3)cc2)cc1NC(=O)c1ccc2ncccc2c1
IC50 (nM): 1540
--
Structure notation: COC(=O)c1ccc(-c2ccc(CCN3CCc4cc(OC)c(OC)cc4C3)cc2)cc1NC(=O)c1ccc2ccccc2n1
IC50 (nM): 3210
